Data provenance: ChEMBL document CHEMBL3217712

assay: Biodistribution in mouse Cloudman S91 tumor bearing DBA2 mouse tumour at 10 mg/kg, ip after 72 hrs; assay type: ADME, organism-based, Neoplasm; design: dose 10 mg/kg, route intraperitoneal; conditions: read-out: Drug uptake
ENDPOINT_NAME: concentration at 72 h (ng/g)
The answer is to be given in ng/g; state only the numeric part.

## Input Given "CCNS(=O)(=O)c1ccc(Cl)c(-c2c3nc(c(-c4c(Cl)ccc(S(=O)(=O)NCC)c4Cl)c4ccc([nH]4)c(-c4c(Cl)ccc(S(=O)(=O)NCC)c4Cl)c4nc(c(-c5c(Cl)ccc(S(=O)(=O)NCC)c5Cl)c5ccc2[nH]5)CC4)CC3)c1Cl" , state its recorded concentration at 72 h.
## Output 150

* * *

experiment: Biodistribution in mouse Cloudman S91 tumor bearing DBA2 mouse liver at 10 mg/kg, ip after 2 hrs; assay type: ADME, organism-based; design: dose 10 mg/kg, route intraperitoneal; details: read-out: Drug uptake
ENDPOINT_NAME: concentration at 2 h (ng/g)
The answer is to be given in ng/g; state only the numeric part.

## Input Given "CCNS(=O)(=O)c1ccc(Cl)c(-c2c3nc(c(-c4c(Cl)ccc(S(=O)(=O)NCC)c4Cl)c4ccc([nH]4)c(-c4c(Cl)ccc(S(=O)(=O)NCC)c4Cl)c4nc(c(-c5c(Cl)ccc(S(=O)(=O)NCC)c5Cl)c5ccc2[nH]5)CC4)CC3)c1Cl" , state its recorded concentration at 2 h.
## Output 980

* * *

assay: Biodistribution in mouse Cloudman S91 tumor bearing DBA2 mouse lungs at 10 mg/kg, ip after 2 hrs; format: ADME, organism-based; design: dose 10 mg/kg, route intraperitoneal; details: lung, read-out: Drug uptake
ENDPOINT_NAME: concentration at 2 h (ng/g)
The answer is to be given in ng/g; state only the numeric part.

## Input Given "CCNS(=O)(=O)c1ccc(Cl)c(-c2c3nc(c(-c4c(Cl)ccc(S(=O)(=O)NCC)c4Cl)c4ccc([nH]4)c(-c4c(Cl)ccc(S(=O)(=O)NCC)c4Cl)c4nc(c(-c5c(Cl)ccc(S(=O)(=O)NCC)c5Cl)c5ccc2[nH]5)CC4)CC3)c1Cl" , state its recorded concentration at 2 h.
## Output 200

* * *

experiment: Biodistribution in mouse Cloudman S91 tumor bearing DBA2 mouse lungs at 10 mg/kg, ip after 12 hrs; type: ADME, organism-based; set-up: dose 10 mg/kg, route intraperitoneal; conditions: lung, read-out: Drug uptake
ENDPOINT_NAME: concentration at 12 h
Write the figure, then the unit, nothing else.

## Input Given "CCNS(=O)(=O)c1ccc(Cl)c(-c2c3nc(c(-c4c(Cl)ccc(S(=O)(=O)NCC)c4Cl)c4ccc([nH]4)c(-c4c(Cl)ccc(S(=O)(=O)NCC)c4Cl)c4nc(c(-c5c(Cl)ccc(S(=O)(=O)NCC)c5Cl)c5ccc2[nH]5)CC4)CC3)c1Cl" , state its recorded concentration at 12 h.
## Output 300 ng/g

* * *

assay: Biodistribution in mouse Cloudman S91 tumor bearing DBA2 mouse tumour at 10 mg/kg, ip after 2 hrs; format: ADME, organism-based, Neoplasm; set-up: dose 10 mg/kg, route intraperitoneal; settings: read-out: Drug uptake
ENDPOINT_NAME: concentration at 2 h
Write the figure, then the unit, nothing else.

## Input Given "CCNS(=O)(=O)c1ccc(Cl)c(-c2c3nc(c(-c4c(Cl)ccc(S(=O)(=O)NCC)c4Cl)c4ccc([nH]4)c(-c4c(Cl)ccc(S(=O)(=O)NCC)c4Cl)c4nc(c(-c5c(Cl)ccc(S(=O)(=O)NCC)c5Cl)c5ccc2[nH]5)CC4)CC3)c1Cl" , state its recorded concentration at 2 h.
## Output 40 ng/g
